biological target: T1, human MSLN-R2-his protein (human, UniProt Q13421 391-486); assay: ELISA on coated antigen, antibody 200 nM
T1 construct: it is put last here; also called human MSLN-R2 protein; hMSLN-R2-his; not shown: His tag
T1 sequence (Q13421 other isoform, or with tags, fused parts or gaps): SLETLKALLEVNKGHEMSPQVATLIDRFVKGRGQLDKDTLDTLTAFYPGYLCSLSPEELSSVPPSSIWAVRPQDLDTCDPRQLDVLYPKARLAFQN
measurement type: OD450

binder="S009-F7.23.19 (antibody, human IgG1, kappa, V domains shown, Human-murine chimeric antibody, human IgG1 heavy and kappa light constant regions) VH: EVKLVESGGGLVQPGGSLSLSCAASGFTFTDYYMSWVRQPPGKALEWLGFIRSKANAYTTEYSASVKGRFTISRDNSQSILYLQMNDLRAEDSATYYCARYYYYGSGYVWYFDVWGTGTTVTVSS VL: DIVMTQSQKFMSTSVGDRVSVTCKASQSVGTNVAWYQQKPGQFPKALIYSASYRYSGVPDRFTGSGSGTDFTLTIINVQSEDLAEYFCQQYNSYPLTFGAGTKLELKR" value_observed="0.09 OD"
binder="S009-F7.2.3 (antibody, human IgG1, kappa, V domains shown, Human-murine chimeric antibody, human IgG1 heavy and kappa light constant regions) VH: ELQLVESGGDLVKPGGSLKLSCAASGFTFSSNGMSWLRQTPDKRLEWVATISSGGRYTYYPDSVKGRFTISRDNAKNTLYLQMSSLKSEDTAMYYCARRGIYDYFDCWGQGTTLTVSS VL: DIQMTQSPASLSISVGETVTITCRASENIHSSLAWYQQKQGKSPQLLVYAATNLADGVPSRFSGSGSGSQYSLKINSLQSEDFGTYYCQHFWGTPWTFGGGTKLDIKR" value_observed="2.74 OD"
binder="S009-F7.65.13 (antibody, human IgG1, kappa, V domains shown, Human-murine chimeric antibody, human IgG1 heavy and kappa light constant regions) VH: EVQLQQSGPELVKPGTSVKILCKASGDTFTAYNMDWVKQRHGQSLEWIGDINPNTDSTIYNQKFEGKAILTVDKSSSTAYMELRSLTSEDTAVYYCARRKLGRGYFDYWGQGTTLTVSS VL: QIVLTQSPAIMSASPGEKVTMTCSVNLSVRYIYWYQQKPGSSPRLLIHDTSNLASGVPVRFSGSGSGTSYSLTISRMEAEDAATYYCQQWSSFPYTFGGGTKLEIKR" value_observed="0.1 OD"
binder="S009-F7.25.19 (antibody, human IgG1, kappa, V domains shown, Human-murine chimeric antibody, human IgG1 heavy and kappa light constant regions) VH: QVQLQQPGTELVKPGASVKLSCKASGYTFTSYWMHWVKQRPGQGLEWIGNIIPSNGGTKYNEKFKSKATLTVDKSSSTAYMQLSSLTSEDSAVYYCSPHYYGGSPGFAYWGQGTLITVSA VL: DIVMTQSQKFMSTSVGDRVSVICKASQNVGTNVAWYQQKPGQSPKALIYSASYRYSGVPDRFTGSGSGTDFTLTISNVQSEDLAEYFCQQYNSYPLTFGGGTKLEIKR" value_observed="0.31 OD"
binder="S009-F7.12.13 (antibody, human IgG1, kappa, V domains shown, Human-murine chimeric antibody, human IgG1 heavy and kappa light constant regions) VH: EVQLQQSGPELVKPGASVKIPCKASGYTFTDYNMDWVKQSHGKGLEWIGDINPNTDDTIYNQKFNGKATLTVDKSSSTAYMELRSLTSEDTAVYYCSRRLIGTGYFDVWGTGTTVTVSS VL: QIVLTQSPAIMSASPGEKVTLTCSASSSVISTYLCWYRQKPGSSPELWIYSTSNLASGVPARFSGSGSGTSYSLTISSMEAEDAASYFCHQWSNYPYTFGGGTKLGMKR" value_observed="0.08 OD"

Values from patent US20250250357A1
